These data points were gathered from ChEMBL document CHEMBL4699598.

test: Selectivity index, ratio of CC50 for cytotoxicity against human A549 cells assessed as reduction in cell viability incubated for 48 hrs by alamarBlue assay to IC50 for antiviral activity against Human adenovirus 5 infected in 293beta5 cells assessed as inhibition of plaque formation incubated for 7 days by GFP reporter gene assay; assay type: toxicity, cell-based; conditions: read-out: Ratio CC50/IC50
Note to self: values exactly at 9 are yes. So selectivity ratio at 48 h at or above 9 is yes, below is no.

O=C(Nc1ccc(NCc2ccccc2)cc1Cl)c1cc(Cl)ccc1O | no
CC(C)[C@H](NC(=O)c1cc(Cl)ccc1O)C(=O)Nc1ccc(NC2CCCC2)cc1Cl | yes
CCCNc1ccc(NC(=O)c2cc(Cl)ccc2O)c(Cl)c1 | no
O=C(Nc1ccc(NCc2ccc(Br)s2)cc1Cl)c1cc(Cl)ccc1O | no

Then there is this compound:
Exercise: Kindly determine if selectivity ratio at 48 h recorded for O=C(Nc1ccc(NCc2cc(Cl)cc(Cl)c2)cc1Cl)c1cc(Cl)ccc1O is above or exactly 9.
Key: yes

* * *

assay: Cytotoxicity against human A549 cells assessed as reduction in cell viability incubated for 48 hrs by alamarBlue assay; format: cell-based
Item-by-item account of CC50 at 48 h

O=C(Nc1ccc(NC2CCCC2)cc1F)c1cc(Cl)ccc1O | 51 µM
O=C(Nc1ccc(NCC2CCCC2)cc1Cl)c1cc(Cl)ccc1O | 21.5 µM
CC(C)(C)OC(=O)N1CCC(CNc2ccc(NC(=O)c3cc(Cl)ccc3O)c(Cl)c2)CC1 | 92 µM
CC(C)[C@H](NC(=O)c1cc(Cl)ccc1O)C(=O)Nc1ccc(NC2CCCC2)cc1Cl | 111 µM
O=C(Nc1ccc(NCc2ccc(C(F)(F)F)cc2)cc1Cl)c1cc(Cl)ccc1O | 62.7 µM
CC(C)(Cc1ccccc1)ON(c1ccc(NC(=O)c2cc(Cl)ccc2O)c(Cl)c1)C(C)(C)Cc1ccccc1 | 165 µM
CCCN(CCC)c1ccc(NC(=O)c2cc(Cl)ccc2O)c(Cl)c1 | 10.7 µM
O=C(Nc1ccc(NCc2ccccc2)cc1Cl)c1cc(Cl)ccc1O | 19.7 µM
O=C(Nc1ccc(NCc2ccc(F)cc2)cc1Cl)c1cc(Cl)ccc1O | 54.4 µM
O=C(Nc1ccc(NC2CCCCC2)cc1Cl)c1cc(Cl)ccc1O | 68.3 µM

Exercise: Request the reported CC50 at 48 h associated with O=C(Nc1ccc(NCc2ccc3cn[nH]c3c2)cc1Cl)c1cc(Cl)ccc1O
Key: 45.3 µM

Exercise: Quick check: CC50 at 48 h of O=C(Nc1ccc(N(CC2CC2)CC2CC2)cc1Cl)c1cc(Cl)ccc1O ?
Key: 12.8 µM

Exercise: CC50 at 48 h for O=C(Nc1ccc(NCc2ccc(O)cc2)cc1Cl)c1cc(Cl)ccc1O ?
Key: 116 µM

Exercise: I'd like to know its CC50 at 48 h. The molecule in question is O=C(Nc1ccc(NC2CCCC2)c(Cl)c1)c1cc(Cl)ccc1O
Key: 16.9 µM

Exercise: Requested read-out: CC50 at 48 h. Entry: CC(CCO)Nc1ccc(NC(=O)c2cc(Cl)ccc2O)c(Cl)c1 (configuration not stated)
Key: 200 µM

Exercise: Fill in the blank: the reported CC50 at 48 h of CC1(Nc2ccc(NC(=O)c3cc(Cl)ccc3O)c(Cl)c2)CCCC1 is ____.
Key: 157 µM

Exercise: Fill blank: measured CC50 at 48 h of the molecule O=C(Nc1ccc(NCc2cccc(Br)n2)cc1Cl)c1cc(Cl)ccc1O is ____.
Key: 92.3 µM

* * *

assay: Selectivity index, ratio of CC50 for cytotoxicity against human A549 cells assessed as reduction in cell viability incubated for 48 hrs by alamarBlue assay to IC50 for antiviral activity against Human adenovirus 5 infected in 293beta5 cells assessed as inhibition of plaque formation incubated for 7 days by GFP reporter gene assay; assay type: toxicity, cell-based; settings: read-out: Ratio CC50/IC50
Where selectivity ratio at 48 h equals or exceeds 50, the correct label is Y; where it does not, the label is N.

CC(C)(C)OC(=O)NCCNc1ccc(NC(=O)c2cc(Cl)ccc2O)c(Cl)c1 | N
CC(C)(Cc1ccccc1)ON(c1ccc(NC(=O)c2cc(Cl)ccc2O)c(Cl)c1)C(C)(C)Cc1ccccc1 | Y

Exercise: Is it the case that O=C(Nc1ccc(NCC2CC2)cc1Cl)c1cc(Cl)ccc1O has selectivity ratio at 48 h reaching or exceeding 50?
Key: N

* * *

test: Selectivity index, ratio of CC50 for cytotoxicity against human A549 cells assessed as reduction in cell viability incubated for 48 hrs by alamarBlue assay to IC50 for antiviral activity against Human adenovirus 5 infected in 293beta5 cells assessed as inhibition of plaque formation incubated for 7 days by GFP reporter gene assay; assay type: toxicity, cell-based; details: read-out: Ratio CC50/IC50
Just so you know, the groups by selectivity ratio at 48 h go like this: bottom: < 20; middle: ≥ 20 and < 60; top: ≥ 60

Exercise: GET /class?item= CCCCCCCCC(C)Nc1ccc(NC(=O)c2cc(Cl)ccc2O)c(Cl)c1 (stereo not drawn)
Key: bottom

Exercise: Please let me know in which category the item CC(C)Nc1ccc(NC(=O)c2cc(Cl)ccc2O)c(Cl)c1 belongs.
Key: bottom

Exercise: Which bin should I file O=C(Nc1ccc(NC2CCCC2)cc1Cl)c1cc(Cl)ccc1O under?
Key: top

Exercise: Which bin, given its selectivity ratio at 48 h, does O=C(Nc1ccc(NCc2cnccc2Cl)cc1Cl)c1cc(Cl)ccc1O occupy?
Key: top

Exercise: read the entry CC1(Nc2ccc(NC(=O)c3cc(Cl)ccc3O)c(Cl)c2)CCCC1 and state which class it falls under.
Key: top

* * *

assay: Cytotoxicity against human A549 cells assessed as reduction in cell viability incubated for 48 hrs by alamarBlue assay; format: cell-based
Mark each entry Criterion met if its CC50 at 48 h sits below 60 µM, and Criterion not met for all others.

Record excerpt, results attached:
O=C(Nc1cc(NC2CCCC2)ccc1F)c1cc(Cl)ccc1O | Criterion met
O=C(Nc1ccc(N(CCCO)CCCO)cc1Cl)c1cc(Cl)ccc1O | Criterion not met
CCNc1ccc(NC(=O)c2cc(Cl)ccc2O)c(Cl)c1 | Criterion met
CCCCCCCCC(C)Nc1ccc(NC(=O)c2cc(Cl)ccc2O)c(Cl)c1 (stereo unspecified) | Criterion met
O=C(Nc1ccc(NC2CCCC2)cc1Cl)c1cc(Cl)ccc1O | Criterion not met
CN(C)c1ccc(CNc2ccc(NC(=O)c3cc(Cl)ccc3O)c(Cl)c2)cc1 | Criterion met
CC(C)(CCO)Nc1ccc(NC(=O)c2cc(Cl)ccc2O)c(Cl)c1 | Criterion not met
O=C(Nc1ccc(NCc2ccncc2)cc1Cl)c1cc(Cl)ccc1O | Criterion not met

Exercise: For this compound, is CC50 at 48 h lower than 60 µM? CCCCCCC(C)Nc1ccc(NC(=O)c2cc(Cl)ccc2O)c(Cl)c1 (stereo unspecified)
Key: Criterion met

Exercise: # strict comparison: is reported CC50 at 48 h < 60 µM? input = CCCNc1ccc(NC(=O)c2cc(Cl)ccc2O)c(Cl)c1
Key: Criterion met

* * *

Some molecules, each annotated with its measured CC50 at 48 h.
test: Cytotoxicity against human A549 cells assessed as reduction in cell viability incubated for 48 hrs by alamarBlue assay; assay type: cell-based
The answer is to be given in µM; state only the numeric part.

CS(=O)(=O)Nc1ccc(Cl)cc1C(=O)Nc1ccc(NC2CCCC2)cc1Cl | 35.4
CC(C)(C)OC(=O)N1CCC(Nc2ccc(NC(=O)c3cc(Cl)ccc3O)c(Cl)c2)CC1 | 100
CCN(CC)c1ccc(NC(=O)c2cc(Cl)ccc2O)c(Cl)c1 | 55.5

--- query ---
Exercise: What CC50 at 48 h value was documented for this molecule, O=C(Nc1ccc(NCc2cc(F)cc(C(F)(F)F)c2)cc1Cl)c1cc(Cl)ccc1O ?
Key: 30.9

* * *

test: Cytotoxicity against human A549 cells assessed as reduction in cell viability incubated for 48 hrs by alamarBlue assay; format: cell-based
Under this convention, TRUE denotes CC50 at 48 h strictly below 80 µM and FALSE denotes CC50 at 48 h at or above 80 µM.

O=C(Nc1ccc(NCc2cccnc2Cl)cc1Cl)c1cc(Cl)ccc1O | FALSE
O=C(Nc1ccc(NCc2ccc(Cl)cc2)cc1Cl)c1cc(Cl)ccc1O | TRUE
O=C(Nc1ccc(NCc2ccc(O)nc2)cc1Cl)c1cc(Cl)ccc1O | FALSE

With those in mind, consider the next compound.
Exercise: In plain terms, does O=C(Nc1ccc(NCC2CC2)cc1Cl)c1cc(Cl)ccc1O come in under 80 µM for CC50 at 48 h?
Key: TRUE

* * *

experiment: Selectivity index, ratio of CC50 for cytotoxicity against human A549 cells assessed as reduction in cell viability incubated for 48 hrs by alamarBlue assay to IC50 for antiviral activity against Human adenovirus 5 infected in 293beta5 cells assessed as inhibition of plaque formation incubated for 7 days by GFP reporter gene assay; format: toxicity, cell-based; details: read-out: Ratio CC50/IC50
Property: selectivity ratio at 48 h; scope: individual molecules
Answer with a number only.

The examples below pair each entry with its known result.
CCNc1ccc(NC(=O)c2cc(Cl)ccc2O)c(Cl)c1 | 13.9
O=C(Nc1ccc(NCc2cc(F)cc(C(F)(F)F)c2)cc1Cl)c1cc(Cl)ccc1O | 26.7
COc1ccc(CNc2ccc(NC(=O)c3cc(Cl)ccc3O)c(Cl)c2)cc1 | 22.4
CC(C)(CCO)Nc1ccc(NC(=O)c2cc(Cl)ccc2O)c(Cl)c1 | 188
O=C(Nc1ccc(NCc2ccc3cn[nH]c3c2)cc1Cl)c1cc(Cl)ccc1O | 9.7

Exercise: Give the measured selectivity ratio at 48 h of O=C(Nc1ccc(NCc2cc(F)cc(Cl)c2)cc1Cl)c1cc(Cl)ccc1O .
Key: 8.7

Exercise: // lookup selectivity ratio at 48 h for CC(C)CNc1ccc(NC(=O)c2cc(Cl)ccc2O)c(Cl)c1
Key: 67.4

Exercise: Please give the measured selectivity ratio at 48 h for this molecule: O=C(Nc1cc(F)cc(C(F)(F)F)c1)c1cc(Cl)ccc1O
Key: 667

Exercise: Need selectivity ratio at 48 h of Cc1ccc(O)c(C(=O)Nc2ccc(NC3CCCC3)cc2Cl)c1 , thanks.
Key: 11.4

Exercise: Please look up its selectivity ratio at 48 h: O=C(Nc1ccc(NCc2cccnc2Cl)cc1Cl)c1cc(Cl)ccc1O
Key: 21

Exercise: Need selectivity ratio at 48 h, item O=C(Nc1ccc(NCc2cccc(C(F)(F)F)c2)cc1Cl)c1cc(Cl)ccc1O
Key: 15.2

Exercise: Suppose we examine the molecule CS(=O)(=O)Nc1ccc(Cl)cc1C(=O)Nc1ccc(NC2CCCC2)cc1Cl ; what selectivity ratio at 48 h value has been reported?
Key: 20.6

Exercise: What value of selectivity ratio at 48 h has been reported for the following molecule? CC1(ON(c2ccc(NC(=O)c3cc(Cl)ccc3O)c(Cl)c2)C2(C)CCCC2)CCCC1
Key: 24.3

Exercise: Sample O=C(Nc1ccc(NCc2ccc(C(F)(F)F)cc2)cc1Cl)c1cc(Cl)ccc1O — what was its selectivity ratio at 48 h?
Key: 43.8

Exercise: Requested read-out: selectivity ratio at 48 h. Entry: CCN(CC)c1ccc(NC(=O)c2cc(Cl)ccc2O)c(Cl)c1
Key: 64.5

Exercise: Looking for the measured selectivity ratio at 48 h of O=C(Nc1ccc(NCc2cccc(Br)n2)cc1Cl)c1cc(Cl)ccc1O , can you help?
Key: 40.8

Exercise: Form field: reported selectivity ratio at 48 h of CCCN(CCC)c1ccc(NC(=O)c2cc(Cl)ccc2O)c(Cl)c1
Key: 16

Exercise: For the molecule O=C(Nc1ccc(N(CC2CC2)CC2CC2)cc1Cl)c1cc(Cl)ccc1O , what selectivity ratio at 48 h is on record?
Key: 20.7

Exercise: Sample CC(C)(C)OC(=O)N1CCC(CNc2ccc(NC(=O)c3cc(Cl)ccc3O)c(Cl)c2)CC1 — what was its selectivity ratio at 48 h?
Key: 102

Exercise: Reported selectivity ratio at 48 h for O=C(Nc1ccc(NC2CCCC2)cc1F)c1cc(Cl)ccc1O : what is it?
Key: 49.1

Exercise: selectivity ratio at 48 h for O=C(Nc1ccc(NCc2ccc(O)cc2)cc1Cl)c1cc(Cl)ccc1O ?
Key: 104

Exercise: Tell me the measured selectivity ratio at 48 h of O=C(Nc1ccc(NCc2ccc(Br)cc2)cc1Cl)c1cc(Cl)ccc1O , please.
Key: 22.2

Exercise: What measured selectivity ratio at 48 h goes with CC(CCO)Nc1ccc(NC(=O)c2cc(Cl)ccc2O)c(Cl)c1 (stereo not drawn) ?
Key: 167
